target: human activated protein C (human, UniProt P04070 43-197; P04070 212-461); assay: cell-based or functional assay
metric: Mean clotting time (s), FIX-deficient plasma, APC-antibody concentration 0.5 ug/ml
Give just the numeric value; s need not be written.

[[record]]
binder = "HAPC-14-7 (antibody, V domains shown, Whole IgG, backbone hIgG1; also called HPAC 14-7) VH: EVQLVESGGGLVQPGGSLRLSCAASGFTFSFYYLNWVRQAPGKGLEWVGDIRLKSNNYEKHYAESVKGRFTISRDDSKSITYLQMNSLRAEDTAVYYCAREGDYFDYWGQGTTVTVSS VL: DIQLTQSPSSLSASVGDRVTITCRASESVDSFGATFMHWYQQKPGKAPKLLIYLASRLESGVPSRFSGSGSGTDFTLTISSLQPEDFATYYCQQNNEDPYTFGQGTKLEIK"
reportedmeasurement = 241

[[record]]
binder = "HAPC-14-8 (antibody, V domains shown, Whole IgG, backbone hIgG1; also called HPAC 14-8) VH: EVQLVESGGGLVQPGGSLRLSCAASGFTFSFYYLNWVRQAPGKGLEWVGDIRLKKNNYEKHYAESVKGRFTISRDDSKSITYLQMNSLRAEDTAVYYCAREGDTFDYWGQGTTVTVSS VL: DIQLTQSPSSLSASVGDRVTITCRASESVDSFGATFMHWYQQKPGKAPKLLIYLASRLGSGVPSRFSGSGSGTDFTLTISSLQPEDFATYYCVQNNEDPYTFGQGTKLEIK"
reportedmeasurement = 276

[[record]]
binder = "HAPC-14-5 (antibody, V domains shown, Whole IgG, backbone hIgG1; also called HPAC 14-5) VH: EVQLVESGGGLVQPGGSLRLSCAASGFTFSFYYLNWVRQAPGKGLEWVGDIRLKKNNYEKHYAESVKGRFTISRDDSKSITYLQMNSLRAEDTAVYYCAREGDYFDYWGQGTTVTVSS VL: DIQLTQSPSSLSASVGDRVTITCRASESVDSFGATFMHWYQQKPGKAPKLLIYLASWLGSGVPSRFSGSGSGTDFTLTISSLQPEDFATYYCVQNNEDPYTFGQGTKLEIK"
reportedmeasurement = 197

[[record]]
binder = "HAPC-14-10 (antibody, V domains shown, Whole IgG, backbone hIgG1; also called HPAC 14-10) VH: EVQLVESGGGLVQPGGSLRLSCAASGFTFSNYYLNWVRQAPGKGLEWVGDIRLKKNNYEKHYAESVKGRFTISRDDSKSITYLQMNSLRAEDTAVYYCAREGDTFDYWGQGTTVTVSS VL: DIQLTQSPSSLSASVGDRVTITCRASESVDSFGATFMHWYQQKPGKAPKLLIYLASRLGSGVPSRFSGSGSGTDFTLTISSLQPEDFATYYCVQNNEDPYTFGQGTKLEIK"
reportedmeasurement = 331

[[record]]
binder = "HAPC-14-3 (antibody, V domains shown, Whole IgG, backbone hIgG1; also called HPAC 14-3; No. 3) VH: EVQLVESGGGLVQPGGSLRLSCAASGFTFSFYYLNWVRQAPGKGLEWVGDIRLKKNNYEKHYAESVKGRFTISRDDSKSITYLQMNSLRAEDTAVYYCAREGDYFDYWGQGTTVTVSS VL: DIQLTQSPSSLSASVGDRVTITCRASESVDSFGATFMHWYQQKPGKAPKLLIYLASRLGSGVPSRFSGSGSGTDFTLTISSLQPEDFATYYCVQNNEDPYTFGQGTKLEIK"
reportedmeasurement = 208

[[record]]
binder = "HAPC-14-6 (antibody, V domains shown, Whole IgG, backbone hIgG1; also called HPAC 14-6; No. 6) VH: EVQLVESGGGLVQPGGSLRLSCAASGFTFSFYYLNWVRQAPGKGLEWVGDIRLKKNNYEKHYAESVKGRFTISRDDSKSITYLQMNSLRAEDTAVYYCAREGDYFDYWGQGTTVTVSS VL: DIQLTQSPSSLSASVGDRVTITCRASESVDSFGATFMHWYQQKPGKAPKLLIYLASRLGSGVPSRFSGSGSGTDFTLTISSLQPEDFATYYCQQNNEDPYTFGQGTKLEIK"
reportedmeasurement = 181


Shift focus to the following entry.
# get_value(readout='Mean clotting time (s), FIX-deficient plasma, APC-antibody concentration 0.5 ug/ml', item= HAPC-14-2 (antibody, V domains shown, Whole IgG, backbone hIgG1; also called HPAC 14-2) VH: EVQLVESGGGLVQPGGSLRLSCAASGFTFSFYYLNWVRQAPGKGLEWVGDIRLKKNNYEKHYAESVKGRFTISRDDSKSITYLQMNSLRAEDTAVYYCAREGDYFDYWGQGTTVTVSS VL: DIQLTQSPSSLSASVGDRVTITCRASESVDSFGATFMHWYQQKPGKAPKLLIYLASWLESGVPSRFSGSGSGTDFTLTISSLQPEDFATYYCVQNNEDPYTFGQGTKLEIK )
233
